// provenance: PubChem BioAssay (NCI)

Tested on: HCT-116 colon
Experiment: NCI-60 one-dose screen, 48 h (100 = growth as untreated, 0 = no growth, -100 = all killed)
Details: 10 µM unless noted
The panel holds about 83,000 compounds, 20% with a hit somewhere; the sample as a whole holds those more often.
Would you please tag the item YES when its growth is 90% or above, and NO when it is below?

compound: CC(=O)c1c[nH]c2ccc(-c3ccnc(Nc4ccc(NC(=O)C5CCCC5)c(CN5CCOCC5)c4)n3)cc12
className: NO

compound: C#CCNC(=O)[C@H](Cc1ccccc1)NC(=O)[C@]12CC[C@@H](C(=C)C)[C@@H]1[C@H]1CC[C@@H]3[C@@]4(C)Cc5c([nH]c6ccccc56)C(C)(C)[C@@H]4CC[C@@]3(C)[C@]1(C)CC2
className: NO

compound: O=C(CN1CCOCC1)Nc1ccc2ncnc(Nc3ccc(OCc4cccc(F)c4)c(Cl)c3)c2c1
className: NO

compound: COc1ccc(C(=O)c2cc3c(N)c(C(=O)Nc4cccc(Cl)c4C)sc3nc2C)cc1
className: NO

compound: COC(=O)C1NC(=S)N(c2ccc(Cl)cc2)C1/C=C/c1ccccc1 (stereo not drawn)
className: YES

Okay, now this compound:
Entry COc1ccc(C(=O)c2cc3c(N)c(C(=O)Nc4cccc(OC)c4)sc3nc2C)cc1 : is its growth no less than 90%?
NO

* * *

Tested on: DU-145 prostate
Assay: NCI-60 one-dose screen, 48 h
Conditions: 10 µM unless noted
Description: Cells are grown in 96 well plates and exposed to the test compound for 48 hours. Compounds are tested at a single concentration, which is 10^-5 M for most compounds. The reported endpoint is percent growth (GI% or GIPRCNT), where numbers from 0 - 100% represent growth inhibition, and numbers from -100% - 0 represent cell death. For example, a value of 40 represents 60% growth inhibition. A value of 0 means no net growth occurred over the course of the experiment. […]
The panel holds about 83,000 compounds, 20% with a hit somewhere; the sample as a whole holds those more often. The source made the active and inactive calls. The calls were made as follows: active = growth percent below 10; inactive = the rest.
Can you answer with just one of these options? active, inactive

compound: Cc1ccc2[nH]c(=S)n(-c3ccc(S(=O)(=O)Nc4ccc(Cl)nn4)cc3)c(=O)c2c1
measuredOn: DU-145 prostate
className: inactive
--
compound: COc1cc2nc(-c3ccc(C(F)(F)F)cc3)cc(OCCCN3CCCCC3)c2cc1OC
measuredOn: DU-145 prostate
className: inactive
--
compound: O=C1NC(=S)NC(=O)C1=Cc1cn(Cc2ccccn2)c2ccccc12
measuredOn: DU-145 prostate
className: inactive

State the result this test recorded for O=C(O)CCCCCCCCCCCCCCC(=O)O .
inactive

Subsequent entry: COc1cccc(C(Cc2ccccc2)Nc2ccccc2)c1OC (configuration not stated)
inactive

Subsequent entry: COc1cc(C(=O)c2cnc(-c3ccc4cc[nH]c4c3)[nH]2)cc(OC)c1OC
active

Subsequent entry: COc1ccc2c(Nc3ccc(NS(C)(=O)=O)cc3)c3ccccc3nc2c1
active

Subsequent entry: COc1ccc(C(=O)c2cc3c(N)c(C(=O)Nc4cccc(Br)c4C)sc3nc2C)cc1
active

Subsequent entry: Nc1nnc2cc(Cl)ccc2n1
inactive

Subsequent entry: COc1cc2nc(-c3ccc(C(F)(F)F)cc3)cc(OCCCN3CCC(O)CC3)c2cc1OC
inactive

* * *

Quick list: growth per entry.
Tested on: MDA-MB-231 breast
Assay: NCI-60 one-dose screen, 48 h (100 = growth as untreated, 0 = no growth, -100 = all killed)
Details: 10 µM unless noted
The panel holds about 83,000 compounds, 20% with a hit somewhere; the sample as a whole holds those more often. The source made the active and inactive calls. Rule for the calls: active = growth percent below 10; inactive = the rest.

molecule: Cc1ccc(C2C3CC4CCCCC4N3[C@@]3(C(=O)Nc4cc(Cl)ccc43)C2C(=O)c2nc3ccccc3[nH]2)cc1 (some centres not stated)
growth: 30.6% (inactive)

# input molecule: COc1ccc(/C(=C\c2ccccc2)C(=O)O)cc1OC ; wanted: its growth
89.1% (inactive)

Subsequent entry: O=C(Nc1ccc(F)cc1)c1c(NC(=O)C(F)(F)F)sc2c1CCCCC2
-20.4% (active)

Subsequent entry: COc1cc2nc(-c3ccc(C(F)(F)F)cc3)cc(OCCCN3CCCCC3)c2cc1OC
27.7% (inactive)

Subsequent entry: Nc1nnc(C(=O)c2cnc3n(c2=O)CCCCC3)s1
90.4% (inactive)

Subsequent entry: O=C(CN1CCOCC1)Nc1ccc2ncnc(Nc3ccc(Oc4cccc(F)c4)c(Cl)c3)c2c1
74.3% (inactive)

* * *

Tested on: OVCAR-5 ovarian
Assay: NCI-60 one-dose screen, 48 h (100 = growth as untreated, 0 = no growth, -100 = all killed)
Details: 10 µM unless noted
The panel holds about 83,000 compounds, 20% with a hit somewhere; the sample as a whole holds those more often.
Quick list: growth per entry.
Number only, in %; omit the unit.

Below, each entry is followed by its recorded growth result.
compound: CC(C)[N+](C)(CCOC(COc1ccccc1)COc1ccccc1)C(C)C
readingUnit: %
growth: 104

compound: Cn1c(COC(=O)NCCc2ccccn2)nc2c(N3CCOCC3)nc(Cl)nc21
readingUnit: %
growth: -65

compound: COc1nccnn1
readingUnit: %
growth: 101

compound: Cc1ccc(Nc2cc(=S)nc(N)[nH]2)cc1C
readingUnit: %
growth: 100

compound: Cc1ccc(C2CC(c3cccc(Nc4ccncc4)c3)=NN2c2cc(Cl)cc(Cl)c2)cc1 (stereo unspecified)
readingUnit: %
growth: 71.1

Query growth on OVCAR-5 ovarian for COc1ccc(/C=C(/c2ccccc2)[N+](=O)[O-])cc1
-59.6

* * *

Tested on: LOX IMVI melanoma
Experiment: NCI-60 one-dose screen, 48 h (100 = growth as untreated, 0 = no growth, -100 = all killed)
Details: 10 µM unless noted
About 83,000 compounds went through this panel and 20% of them were active in at least one assay; those are over-represented in the sample as a whole.
Quick list: growth per entry.
Number only, in %; omit the unit.

Below, each entry is followed by its recorded growth result.
compound: CCCCCCCCN1C(=O)/C(=c2\sc3n(c2=O)C2C(NN=3)N(CC)C(=O)N2CC)c2ccccc21 (stereo unspecified)
measuredOn: LOX IMVI melanoma
readingUnit: %
growth: 81.9
--
compound: Cc1ccccc1CNc1ccc(N2CCOCC2)cc1
measuredOn: LOX IMVI melanoma
readingUnit: %
growth: 102

# input compound: Cc1ccc(O)c(C(=O)O)c1 ; wanted: its growth
101

Subsequent entry: CC(=O)c1c(C)[nH]c(-c2nc3ccc(N4CCN(C)CC4)cc3[nH]2)c1-c1ccccc1
6.13

Subsequent entry: Nc1ncc(C#Cc2cncc(NC(=O)c3cccc(C(F)(F)F)c3)c2)c2cccnc12
5.77

Subsequent entry: O=C(N/N=C/c1cccc(O)c1)c1ccccc1Nc1cccc(C(F)(F)F)c1
66.7

Subsequent entry: CC(c1ccccc1)n1ccnc1CO (stereo unspecified)
96.3

Subsequent entry: CCSc1ccc2c(c1)N(CCCN1CCN(C)CC1)c1ccccc1S2
-82.5

Subsequent entry: O=C(O)c1cn(C2CC2)c2cc(N3CCN(C(=O)C[n+]4cccc5ccccc54)CC3)c(F)cc2c1=O
20.7

Subsequent entry: COc1ccc(C2CC(c3cccc(Nc4ccncc4)c3)=NN2c2cc(Cl)cc(Cl)c2)cc1 (stereo unspecified)
-52.7

Subsequent entry: CC(=O)N1c2ccccc2NC2=C(C(=O)N(C)C2(C)C)C1C (stereo unspecified)
37.5

Subsequent entry: N#Cc1ccc(-c2ccc3c(c2)NC(=O)/C3=C\c2ccc[nH]2)cc1
97.5

Subsequent entry: C=CCn1c(SCC(=O)Nc2ccc(C(=O)/C=C/c3cc(OC)c(OC)c(OC)c3)cc2)nnc1-c1cc(OC)c(OC)c(OC)c1
5.43

Subsequent entry: COc1ccc2nc(N=Nc3c(O)ccc4ccccc34)sc2c1
12.8

Subsequent entry: NC(=O)c1ncn(C2OC(CO)C(O)C2O)n1 (stereo unspecified)
90.3

Subsequent entry: COc1ccccc1-c1c(-c2ccc(Cl)cc2)c2cc3c(cc2[nH]c1=O)OCCO3
73.9

Subsequent entry: CCC(=O)c1ccc(O)c(OC)c1
102

Subsequent entry: COc1ccc2c(c1)c(CC(=O)NCCOCCOCC(=O)Nc1ccc(OC)c(C(N)=O)c1O)c(C)n2C(=O)c1ccc(Cl)cc1
90

Subsequent entry: O=C(Nc1ccc2cc3ccc(NC(=O)N4CCCCCC4)cc3nc2c1)N1CCCCCC1
-85

Subsequent entry: CC(=O)N1c2ccccc2NC2=C(C(=O)N(Cc3ccccc3)C2(C)C)C1c1ccco1 (stereo unspecified)
25.6

Subsequent entry: FC(F)(F)c1cccc(Oc2ccc(Nc3ncnc4ccc(OCCCN5CCOCC5)cc34)cc2Cl)c1
-36

* * *

Tested on: OVCAR-5 ovarian
Assay: NCI-60 one-dose screen, 48 h (100 = growth as untreated, 0 = no growth, -100 = all killed)
Conditions: 10 µM unless noted
Experimental: Growth inhibition of the OVCAR-5 human tumor cell line is measured as a screen for anti-cancer activity. Cells are grown in 96 well plates and exposed to the test compound for 48 hours. Compounds are tested at a single concentration, which is 10^-5 M for most compounds. The reported endpoint is percent growth (GI% or GIPRCNT), where numbers from 0 - 100% represent growth inhibition, and numbers from -100% - 0 represent cell death. For example, a value of 40 represents 60% growth inhibition. […]
This is part of a sample that, as a whole, favours compounds with a hit. Of some 83,000 tested, about 20% had one in any assay.
Quick list: growth per entry.
Number only, in %; omit the unit.

structureString: C[C@@H]1CN(Cc2ccc(/C=C/c3n[nH]c4ccc5nc(-c6cn[nH]c6C(F)(F)F)c6c(c5c34)CCCC6)cc2)C[C@H](C)O1
measuredOn: OVCAR-5 ovarian
propertyMeasured: growth
resultValue: 19.7

# input compound: O=C(Nc1ccc2cc3ccc(NC(=O)NC4CCCCC4)cc3nc2c1)NC1CCCCC1 ; wanted: its growth
103

Subsequent entry: O=S(=O)(NCCCNc1nccc(-c2c(-c3cccc(O)c3)nc3occn23)n1)c1ccc(F)cc1
128

Subsequent entry: CC(=O)c1c[nH]c2ccc(-c3ccnc(Nc4ccc(NC(=O)C5CCCC5)c(CN5CCOCC5)c4)n3)cc12
-11.6

Subsequent entry: CS(=O)(=O)c1ccc(-c2cc(-c3nnc(SCC(=O)Nc4ccc(C(=O)/C=C/c5ccc(Cl)cc5)cc4)n3-c3ccccc3)c3ccccc3n2)cc1
95.1

Subsequent entry: CCCCCCCCCCCCCCCC(=O)OC[C@@]1(O)C[C@@]23CC[C@@H]4C(C)(C)[C@H](O)CC[C@@]4(C)[C@@H]2CC[C@H]1C3
106

Subsequent entry: O=C1Nc2ccccc2/C1=C\c1cccc(/C=C2/C(=O)Nc3ccccc32)n1
-69.5

Subsequent entry: O=C1NC(=S)NC(=O)C1=Cc1cccc(C=C2C(=O)NC(=S)NC2=O)c1
110
